Here, each record is paired with measured melting point data.

| Molecule | melting point (°C) |
| --- | --- |
| CCCCCCCCCCCN | 17 |
| CC(=O)[C@H]1CC[C@H]2[C@@H]3CCC4=CC(=O)CC[C@]4(C)[C@H]3CC[C@]12C | 121 |
| C1=CCC(c2ccncc2)CC1 (stereo unspecified) | 22.1 |
| O=C(O)CCN1C(=O)C=CC1=O | 104 |
| Clc1ccccc1 | -45.2 |
| CCC(C)Cl (stereo unspecified) | -140 |
| Oc1nc(O)nc(O)n1 | 360 |
| C=Cc1ccc(O)cc1 | 73.5 |
| CC(=O)Oc1ccccc1[N+](=O)[O-] | 40.5 |
| CCCC(=O)Nc1ccc(O)cc1 | 140 |
| N#Cc1cccc([N+](=O)[O-])c1 | 116 |
| Cc1ccccc1N | -16.3 |
| CC(=O)CC(=O)c1cccnc1 | 85 |
| O=C1CCCCN1 | 39.5 |
| C1=CCC=C1 | -85 |
| Cc1cc(C)cc([N+](=O)[O-])c1 | 75 |
| CC(=O)OCC(=O)[C@@]1(O)CC[C@H]2[C@@H]3CCC4=CC(=O)CC[C@]4(C)[C@H]3C(=O)C[C@@]21C | 222 |
| Nc1c2ccccc2nc2ccccc12 | 241 |
| Oc1ccccc1Cl | 9.8 |
| CCCCCCCCC(=O)OCC | -36.7 |
| Cc1cccc2ncccc12 | 19 |
| NCCc1ccc(O)cc1 | 164 |
| CC1CS(=O)(=O)CCN1N=Cc1ccc([N+](=O)[O-])o1 (stereo unspecified) | 181 |
| Clc1ccncc1 | -43.5 |
| CCc1ccc(CC)cc1 | -42.8 |
| O=CN(c1ccccc1)c1ccccc1 | 73.5 |
| NC(=O)CN1CCCC1=O | 152 |
| c1ccc2sc(SSN3CCOCC3)nc2c1 | 135 |
| O=S(=O)(Cl)c1ccc(I)cc1 | 85 |
| CCCCS(=O)CCCC | 32.6 |
| Nc1cccc2c1C(=O)c1ccccc1C2=O | 254 |
| CN(C)C(=O)OC1N=C(c2ccccc2)c2cc(Cl)ccc2N(C)C1=O (stereo unspecified) | 174 |
| [O-][N+](=Nc1ccccc1)c1ccccc1 | 36 |
| FCF | -136 |
| Oc1ccc(O)c(Cl)c1 | 108 |
| CC(C)C1CCCC1 | -111 |
